# protocol-details: A CellTox Green Cytotoxicity Assay to monitor cytotoxicity in HEK293 cells - 40 hour (AID 1224871); further: nearly all actives have a fitted effect of over 45% in size
# condition-notes: CellTox Green fluorescence; series mostly up to 76.8 µM
# From the text: National Center for Advancing Translational Sciences [NCATS] NIH Chemical Genomics Center [NCGC] U.S. Environmental Protection Agency [EPA] National Institutes of Environmental Health Sciences [NIEHS] National Toxicology Program [NTP] Cell-based models are critical for drug discovery. […] Viable cells produce no appreciable increases in fluorescence. Therefore, the fluorescence signal produced by the binding interaction with dead cell DNA is proportional to cytotoxicity. […]
Inconclusive results are not listed. Activity calls are given as the source filed them. The call rests on the fitted dose curve; in most records, active means well fitted activation curve with a large enough effect in the repeat runs; inconclusive means weak or mixed curves; inactive means flat fitted curve, though single readings scatter.
Outcome (select one): active, inactive

These solved cases illustrate the format of a correct answer.
> print(dat)
                                   molecule  qualitative.label
1  CNCCC(Oc1ccccc1OC)c1ccccc1 (stereo not drawn)           inactive
2           CCCCCCn1c(=O)c2c(ncn2C)n(C)c1=O           inactive
3                                Oc1ccccc1F           inactive

Any idea what this test logged for CCN1CC(CCN2CCOCC2)C(c2ccccc2)(c2ccccc2)C1=O (stereo not drawn) ?
inactive

Another molecule: CCC1(C)NC(=O)NC1=O (stereo not drawn)
inactive

Another molecule: "NC(=O)Cc1cccc(C(=O)c2ccccc2)c1N"
inactive

Another molecule: CCCNC(C)C(=O)Nc1c(C)csc1C(=O)OC (stereo not drawn)
inactive

###

# protocol-details: A CellTox Green Cytotoxicity Assay to monitor cytotoxicity in HepG2 cells - 40 hour (AID 1224879); further: nearly all actives have a fitted effect of over 40% in size
# condition-notes: CellTox Green fluorescence; series mostly up to 76.8 µM
Results filed as inconclusive are left out. The source made the active and inactive calls. Calls follow the shape of the dose curve; as a rule, active = well fitted activation curve with a large enough effect in the repeat runs; inconclusive = weak or mixed curves; inactive = flat fitted curve, though single readings scatter.
Outcome (select one): YES (active), NO (inactive)

These solved cases illustrate the format of a correct answer.
> print(dat)
                                   compound  qualitative.label
1                                       C=O                 NO
2                       CCOc1ccc2nc(N)sc2c1                 NO
3  CCCS(=O)c1ccc2nc(NC(=O)OC)[nH]c2c1 (stereo not drawn)                YES

Any idea what this test logged for "FC(F)(F)C(F)(F)C(F)(F)C(F)(F)C(F)(F)C(F)(F)C(F)(F)C(F)(F)Br" ?
NO

###

# protocol-details: qHTS assay for identifying genotoxic compounds that show differential cytotoxicity against isogenic chicken DT40 cell lines with known DNA damage response pathways - wild type cell line (AID 743012); further: nearly all actives have a fitted effect of over 60% in size
# condition-notes: DT40 wild type chicken cells viability, CellTiter-Glo, 40 h; series mostly up to 68.4 µM
# From the text: U.S. Tox21 Program National Center for Advancing Translational Sciences [NCATS] NIH Chemical Genomics Center [NCGC] U.S. Environmental Protection Agency [EPA] National Institutes of Environmental Health Sciences [NIEHS] National Toxicology Program [NTP] U.S. Food and Drug Administration [FDA] Tox21 Assay Overview: DNA repair pathways play a critical role in cellular homeostasis by repairing DNA damage induced by endogenous processes and xenobiotics. […]
Records with an inconclusive call do not appear. Activity calls are given as the source filed them. Calls come from the whole dose curve; as a rule, active = well fitted cell-killing curve with a large enough effect in the repeat runs; inconclusive = weak or mixed curves, or effect the other way; inactive = no such curve, though single readings can be large or run the other way.
Outcome (select one): 1 (active), 0 (inactive)

> print(dat)
                                   compound  qualitative.label
1  CS(=O)(=O)c1ccc([C@@H](O)[C@@H](CF)NC(=O)C(Cl)Cl)cc1                  1

Any idea what this test logged for "O=C1Nc2ccc([N+](=O)[O-])cc2C1=O" ?
0

Another compound: COC(=O)C(C)O (stereo unspecified)
0

Another compound: "CCCc1c2oc(C(=O)O)cc(=O)c2cc2c(=O)cc(C(=O)O)n(CC)c12"
0

Another compound: "OC[C@H]1O[C@@H](O[C@H]2[C@H](O)[C@@H](O)[C@H](O)O[C@@H]2CO)[C@H](O)[C@@H](O)[C@H]1O"
0

Another compound: "CC(=O)OC(C)OC(C)=O"
0

Another compound: "CCCCN1C[C@H](O)[C@@H](O)[C@H](O)[C@H]1CO"
0

Another compound: "CC(=O)Nc1ccc(C)c(Cl)c1"
0

###

# protocol-details: qHTS RealTime-Glo MT Cell Viability Assay in HEK293 cells - 32 hour (AID 1224868); further: nearly all actives have a fitted effect of over 50% in size
# condition-notes: RealTime-Glo luminescence; series mostly up to 76.8 µM
Records with an inconclusive call do not appear. Calls of active or inactive are those of the source. Calls follow the shape of the dose curve; as a rule, active = well fitted cell-killing curve with a large enough effect in the repeat runs; inconclusive = weak or mixed curves, or effect the other way; inactive = flat fitted curve, though single readings scatter.
Outcome (select one): active, inactive

> print(dat)
                                   molecule  qualitative.label
1                              CN1CCN(N)CC1           inactive
2  CC(CNC1CCCCC1)OC(=O)c1ccccc1 (centres undefined)           inactive
3                 COc1ccc(Nc2ccc(OC)cc2)cc1             active
4                                   CCCOCCC           inactive

Any idea what this test logged for "C[C@]12CCC(=O)C=C1CC[C@@H]1[C@@H]2CC[C@@]2(C)[C@H]1CC[C@]2(O)C(=O)CO" ?
inactive

Another molecule: "O=C(CC(=O)C(F)(F)F)c1ccccc1"
inactive

Another molecule: "Clc1cccc(-c2cc(Cl)cc(Cl)c2)c1"
inactive

Another molecule: "CCOC(=O)CS"
inactive

Another molecule: "COc1nc(C)nc(NC(=O)NS(=O)(=O)c2ccccc2OCCCl)n1"
inactive

Another molecule: "CC(C)(C)c1ccc(OC(=O)c2ccccc2O)cc1"
inactive

Another molecule: "COc1cc(N)c(Cl)cc1C(=O)NC1CCN(Cc2ccccc2)CC1"
active

Another molecule: "CC(C)(CO)[C@@H](O)C(=O)NCCC(=O)O"
inactive

Another molecule: "CC(C)CCCCCCc1ccc(OCCOCCO)cc1"
inactive

Another molecule: CCN(CC)CC1CCCCN1CC(=O)N1c2ccccc2C(=O)Nc2cccnc21 (centres undefined)
inactive

Another molecule: "c1ccc(CN(CC2=NCCN2)c2ccccc2)cc1"
inactive

Another molecule: "C=O"
inactive

Another molecule: "CCOC(=O)[C@H](CCc1ccccc1)N[C@@H](C)C(=O)N1Cc2cc(OC)c(OC)cc2C[C@H]1C(=O)O"
inactive

Another molecule: CC1CN(c2ccccc2)NC1=O (centres undefined)
inactive

Another molecule: "OCc1ccccc1O"
inactive

###

# target-desc: Nuclear receptor subfamily 1 group I member 2 (Homo sapiens) (UniProt O75469)
# protocol-details: Human pregnane X receptor (PXR) activation by small molecules, qHTS assay (AID 1346985); further: nearly all actives have a fitted effect of over 40% in size
# condition-notes: DPX-2 HepG2 CYP3A4-luciferase, 24 h; series mostly up to 38.3 µM
Inconclusive results are not listed. Calls of active or inactive are those of the source. Calls come from the whole dose curve; as a rule, active = well fitted activation curve with a large enough effect in the repeat runs; inconclusive = weak or mixed curves; inactive = flat fitted curve, though single readings scatter.
Outcome (select one): True for active, False for inactive

> print(dat)
                                   compound                               target.desc  qualitative.label
1  CCC(=O)O[C@]1(C(=O)SCF)[C@H](C)C[C@H]2[C@@H]3C[C@H](F)C4=CC(=O)C=C[C@]4(C)[C@@]3(F)[C@@H](O)C[C@@]21C  Nuclear receptor subfamily 1 group I member 2 (Homo sapiens) (UniProt O75469)               True
2                                    CC(C)O  Nuclear receptor subfamily 1 group I member 2 (Homo sapiens) (UniProt O75469)              False
3  CCc1cc(Cl)c(OC)c(C(=O)NC[C@@H]2CCCN2CC)c1O  Nuclear receptor subfamily 1 group I member 2 (Homo sapiens) (UniProt O75469)               True
4  O=c1[nH]cnc2c1ncn2[C@@H]1O[C@H](CO)[C@@H](O)[C@H]1O  Nuclear receptor subfamily 1 group I member 2 (Homo sapiens) (UniProt O75469)              False

Any idea what this test logged for CC1(C)S[C@@H]2[C@H](NC(=O)C(C(=O)O)c3ccccc3)C(=O)N2[C@H]1C(=O)O (stereo partly specified) ?
False

Another compound: CCCN(CCC)C(=O)C(CCC(=O)O)NC(=O)c1ccccc1 (stereo unspecified)
False

Another compound: "COc1cc(N)c(Cl)cc1C(=O)NC1CCN(Cc2ccccc2)CC1"
False

Another compound: "COc1ccc(S(=O)(=O)Nc2nnc(CC(C)C)s2)cc1"
False

###

# protocol-details: qHTS assay to identify small molecule agonists of the estrogen receptor beta (ER-beta) signaling pathway - cell viability counter screen (AID 1259380); further: nearly all actives have a fitted effect of over 30% in size
# condition-notes: ER-beta-bla HEK293T viability, CellTiter-Glo luminescence, 16 h; series mostly up to 92.4 µM
Inconclusive results are not listed. Activity calls are given as the source filed them. Calls follow the shape of the dose curve; as a rule, active = well fitted cell-killing curve with a large enough effect in the repeat runs; inconclusive = weak or mixed curves, or effect the other way; inactive = flat fitted curve, though single readings scatter.
Outcome (select one): 1.0 (active), 0.0 (inactive)

These solved cases illustrate the format of a correct answer.
> print(dat)
                                   compound  qualitative.label
1                     CC(C)Nc1nc(N)nc(Cl)n1                0.0
2  CN(CC1(C)CCCO1)S(=O)(=O)c1ccc(Cl)c(S(N)(=O)=O)c1 (configuration not stated)                0.0
3  CS(=O)(=O)c1ccc([C@@H](O)[C@@H](CF)NC(=O)C(Cl)Cl)cc1                0.0
4                          O=C1CCCc2ccccc21                0.0

Any idea what this test logged for "C[C@]12CCC(=O)C=C1CC[C@@H]1[C@@H]2CC[C@@]2(C)[C@H]1CC[C@]2(O)C(=O)CO" ?
0.0

Another compound: CN1C(=O)CC(c2ccccc2)C1=O (configuration not stated)
0.0

Another compound: "C=C(C)C(=O)OCCOP(=O)(O)O"
0.0
